Target: IgG1 (human, UniProt P01857-1 P01857-1:1-330)
Sequence (P01857 other isoform, or with tags, fused parts or gaps): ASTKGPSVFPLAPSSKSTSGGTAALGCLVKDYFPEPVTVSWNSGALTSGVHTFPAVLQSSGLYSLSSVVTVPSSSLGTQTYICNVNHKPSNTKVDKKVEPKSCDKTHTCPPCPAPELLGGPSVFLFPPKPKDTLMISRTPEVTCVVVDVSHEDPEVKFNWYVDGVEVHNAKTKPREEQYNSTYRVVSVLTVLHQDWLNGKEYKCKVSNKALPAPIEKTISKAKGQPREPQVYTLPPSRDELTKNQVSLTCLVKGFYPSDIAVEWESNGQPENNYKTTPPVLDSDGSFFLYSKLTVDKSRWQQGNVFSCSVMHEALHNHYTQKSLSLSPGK
Test: SPR; solution A; short aptamers fit bivalent 1:2 model better
Settings: tags: Calbiochem; chain copies: 2; label: 3' A16 tail for immobilisation
pKd: −log10 of the molar value.
value.type: pKd

> print(dat)
                                     binder  reported
1  GGAGGUGCUCCGAAAGGAACUCC (ssRNA, 2'-F at all pyrimidines) [SEQ ID NO:17]      8.00
